Recorded % inhibition of BACE1 activity, short FRET substrate, one value per entry.
# assaySystem: human BACE1 ECD; also: test concentration or dose not given here
# Sequence (single chain, as listed by the source limits assumed): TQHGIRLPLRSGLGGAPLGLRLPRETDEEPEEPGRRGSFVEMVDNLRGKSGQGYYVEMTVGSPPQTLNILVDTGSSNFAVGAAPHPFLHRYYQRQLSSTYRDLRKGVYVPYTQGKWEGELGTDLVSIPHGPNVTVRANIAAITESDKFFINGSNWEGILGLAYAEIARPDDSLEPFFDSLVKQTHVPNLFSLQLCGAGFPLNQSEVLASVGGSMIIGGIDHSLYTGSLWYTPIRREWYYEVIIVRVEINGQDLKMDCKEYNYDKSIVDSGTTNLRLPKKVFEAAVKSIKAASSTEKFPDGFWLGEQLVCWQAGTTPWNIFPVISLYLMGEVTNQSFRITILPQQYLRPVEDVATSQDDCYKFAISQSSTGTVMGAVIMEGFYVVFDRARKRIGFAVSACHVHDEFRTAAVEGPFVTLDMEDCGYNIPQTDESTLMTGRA
# assayComment: cell-based or functional assay
Give the quantity in %, number only.

// % inhibition of BACE1 activity, short FRET substrate lookup, binder = 5881 (antibody, V domains shown, anti-BACE1 IgG) VH: EVQLLESGGGLVQPGGSLRLSCAASGFTFSKYAMSWVRQAPGKGLEWVSAISGSGISTPYADSVKGRFTISRDNSKNTLYLQMNSLRAEDTAVYYCAKGAGHGSYVKGWFDPWGQGTLVTVSS VL: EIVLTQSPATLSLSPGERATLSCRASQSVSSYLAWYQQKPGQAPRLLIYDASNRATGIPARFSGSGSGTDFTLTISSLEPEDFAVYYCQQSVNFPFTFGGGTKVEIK , result: 97

Recorded % inhibition of BACE1 activity, short FRET substrate (binder 5888 (antibody, V domains shown, anti-BACE1 IgG) VH: QVQLVQSGAEVKKPGSSVKVSCKASGGTFWKYAISWVRQAPGQGLEWMGNIIPGFGTANYAQKFRGRVTITADESTSTAYMELSSLRSEDTAVYYCARSGGTKYGMLDVWGQGTMVTVSS VL: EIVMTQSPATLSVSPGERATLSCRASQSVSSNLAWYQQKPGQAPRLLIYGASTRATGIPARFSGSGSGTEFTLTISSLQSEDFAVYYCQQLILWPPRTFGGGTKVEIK ): -86

For record 5905 (antibody, V domains shown, anti-BACE1 IgG) VH: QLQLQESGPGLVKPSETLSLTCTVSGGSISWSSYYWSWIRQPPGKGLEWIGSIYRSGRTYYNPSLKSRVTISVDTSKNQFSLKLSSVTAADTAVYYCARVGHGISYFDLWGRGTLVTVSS VL: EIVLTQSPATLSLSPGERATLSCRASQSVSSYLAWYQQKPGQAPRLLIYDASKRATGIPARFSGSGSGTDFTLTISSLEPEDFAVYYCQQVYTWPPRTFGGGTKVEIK the listed % inhibition of BACE1 activity, short FRET substrate is 65
